Can you tell me TGI for the items I'm about to list?
- Tested on: A498 renal
- test.details: NCI tumour cell line growth inhibition, 48 h

Sample CCO/N=C(/N)c1ncn(Cc2ccccc2)c1NCC(OCC)OCC ; TGI observed: > 100 µM

Sample Clc1ccccc1/C=C/c1cscn1 ; TGI observed: > 100 µM

Sample COC/C=C\[C@]1(O)CCCC[C@@H]1CC(OC)OC ; TGI observed: > 100 µM

Sample COc1cc(NS(=O)(=O)c2ccc(-c3cnc(C4CC4)o3)cc2)ccc1F ; TGI observed: 0.892 µM

Sample NC(N)=N/N=C/c1c(-c2cccc([N+](=O)[O-])c2)nc2n1CCS2 ; TGI observed: 32.9 µM

Sample CCOC(=O)C1(C(=O)OCC)C[C@H](C)[C@](C)(O)C1 ; TGI observed: > 100 µM

Sample CCOP(=O)(O)C1C(CO)OC(n2ccc(=O)[nH]c2=O)C1O (stereo not given) ; TGI observed: > 100 µM

Sample Cc1ccc2c3c(c(=O)[nH]c2c1)C1(C(C#N)=C(N)O3)c2cc(Br)ccc2-c2ccc(Br)cc21 ; TGI observed: 3.61 µM

Sample C=C1CC[C@H](O)C(C)(C)[C@@H]1CC/C(C)=C/CC/C=C(\C)CC/C=C(\C)CCC=C(C)C ; TGI observed: > 100 µM

Sample COc1ccc(C2C3=C(Nc4ncnn42)c2ccccc2OC3c2ccccc2)cc1 (stereo not given) ; TGI observed: 6.36 µM

Sample Nc1ncn(C2CC(O)C(CO)O2)c(=O)n1 (stereo not given) ; TGI observed: > 332 µM

Sample COc1cc(OC)cc(-c2nc3cc(F)ccc3s2)c1 ; TGI observed: 62.9 µM

Sample COc1ccccc1N1CCN(CCCN2/C(=C(\O)c3ccccc3)C(=O)c3c(C)cc(C)nc3S2(=O)=O)CC1 ; TGI observed: > 100 µM

Sample COc1ccc(O)c(/C(C)=N/NC(=S)N(C)C)c1 ; TGI observed: > 100 µM

Sample NNc1nncc2n[nH]nc12 ; TGI observed: > 100 µM

* * *

Can you tell me TGI for the items I'm about to list?
- System: DLD-1 colon
- test.details: NCI tumour cell line growth inhibition, 48 h

Sample CCCCCCC(=O)C/C(=N/NC(N)=S)C(=O)NC1C2CC3CC(C2)CC1C3 (stereo not given) ; TGI observed: > 100 µM

Sample c1cc[c]([Pb]([c]2ccccc2)[c]2ccccc2)cc1 ; TGI observed: 29.6 µM

Sample C=CCc1cc(-c2cc(CC=C)c(O)c(CNCCCl)c2)cc(CNCCCl)c1O ; TGI observed: 57 µM

Sample Fc1ccc(C2SCc3nc4ccccc4n32)cc1Cl (stereo not given) ; TGI observed: > 100 µM

Sample CCO/N=C(/N)c1ncn(Cc2ccccc2)c1NCC(OCC)OCC ; TGI observed: > 100 µM

Sample CCCCOC(=O)NC(=O)c1cn(C2CCCCC2)c(=O)[nH]c1=O ; TGI observed: > 100 µM

Sample CCN(CC)CC(=O)O[C@]1(CC)C(=O)OCc2c1cc1n(c2=O)Cc2cc3ccccc3nc2-1 ; TGI observed: > 100 µM

Sample COc1cccc(N2C(=O)[C@H]3CC(C)c4c([nH]c5ccccc45)[C@H]3C2=O)c1 (stereo not given in full) ; TGI observed: > 100 µM

Sample CCOC(=O)C(Cc1cn(S(=O)(=O)c2ccccc2)c2ccccc12)(NC(C)=O)C(=O)OCC ; TGI observed: > 100 µM

Sample CCc1ccc(Nc2ccc([N+](=O)[O-])cc2[N+](=O)[O-])cc1 ; TGI observed: > 100 µM

* * *

- Tested on: RXF 393 renal
- test.details: NCI tumour cell line growth inhibition, 48 h; in the data active = GI50 below about 0.43 µM; inactive = the rest
Entry note: the call must match one of active, inactive

Exercise: Outcome? COC(=O)[C@H](Cc1c[nH]c2ccccc12)NC(=O)[C@@H](OC)[C@@H]1Cc2cc3cc(OC4CC(OC5CC(O)C(O)C(C)O5)C(O)C(C)O4)c(C)c(O)c3c(O)c2C(=O)[C@H]1OC1CC(OC2CC(OC3CC(C)(O)C(O)C(C)O3)C(O)C(C)O2)C(O)C(C)O1 (stereo not given in full)
Key: active

Exercise: Outcome? Cc1ccc2[nH]c(C(=O)NN3C(=O)C(C)SC34CCCC(C)C4)c(-c3ccccc3)c2c1 (stereo not given)
Key: inactive

Exercise: Outcome? CC[C@H](C)[C@H]1O[C@]2(C=C[C@@H]1C)C[C@@H]1C[C@@H](C/C=C(\C)[C@@H](O[C@H]3C[C@H](OC)[C@@H](O[C@H]4C[C@H](OC)[C@@H](NC)[C@H](C)O4)[C@H](C)O3)[C@@H](C)/C=C/C=C3\CO[C@@H]4[C@H](O)C(C)=C[C@@H](C(=O)O1)[C@]34O)O2
Key: inactive

Exercise: Outcome? CCCCCN(CCCCC)CC(O)c1ccc(Cl)c2ccccc12 (stereo not given)
Key: inactive

Exercise: Outcome? C/C=C1/C(=C/c2[nH]c(/C=c3\[nH]/c(=C/C4=NC(=O)C(CC)=C4C)c(C)c3CCC(=O)O)c(CCC(=O)O)c2C)NC(=O)C1C (stereo not given)
Key: inactive

* * *

- System: HT29 colon
- test.details: NCI tumour cell line growth inhibition, 48 h; in the data active means GI50 below about 0.43 µM; inactive means the rest
Entry note: the call must match one of T for active, F for inactive

Exercise: Outcome? O=C1/C(=C/c2ccc(O)cc2)CSc2ccc(Cl)cc21
Key: F

Exercise: Outcome? Fc1ccc(-c2nn3ncccc3c2-c2ccnc(Nc3ccc4c(c3)OCCO4)n2)cc1
Key: F

Exercise: Outcome? COc1ccc(-n2cc(-c3cc(OC)c(OC)c(OC)c3)[nH]c2=O)cc1Cl
Key: F

Exercise: Outcome? COc1cc2c3c(n(CCNCCCNCCn4c5c(c6cc(OC)c(OC)cc6c4=O)C(=O)c4ccccc4-5)c(=O)c2cc1OC)-c1ccccc1C3=O
Key: T

Exercise: Outcome? Cc1ccc(NC(=O)c2sc3nc(C)c(C(O)c4ccccc4)cc3c2N)cc1 (centres undefined)
Key: T

Exercise: Outcome? COc1ccccc1Cn1cc2c(c1-c1ccccc1)CCc1cnoc1-2
Key: F

Exercise: Outcome? O=C(O)[C@@H]1CCCCN1Cc1cc2cc3c(cc2c2cc(OCc4ccccc4)ccc12)OCO3
Key: F

Exercise: Outcome? CC1(C)N=C(N)N=C(N)N1c1ccc(OCc2ccc(S(=O)(=O)F)c(Cl)c2)c(Cl)c1
Key: F

Exercise: Outcome? C=C[C@H]1C[C@@H]2C[C@@H]3[C@H]4C/C=C\C(=O)NCCCC5NC(=O)C(=C(O)/C=C/[C@@H]4CC(=O)[C@H]3[C@@H]2[C@H]1C)C5=O (some centres undefined)
Key: F

* * *

- Test system: HOP-62 NSCLC
- test.details: NCI tumour cell line growth inhibition, 48 h
Can you tell me TGI for the items I'm about to list?

Value sought: TGI, system HOP-62 NSCLC, item O=C(/C(=C/c1cccc([N+](=O)[O-])c1)c1ccccc1)c1ccccc1 . Result: 7.56 µM

Value sought: TGI, system HOP-62 NSCLC, item CC1(C)CC(=O)C(/C=N/c2nc(-c3ccccc3)cs2)=C(O)C1 . Result: > 100 µM

Value sought: TGI, system HOP-62 NSCLC, item CCCS(=O)(=O)/C(=C(\c1ccc(Br)cc1)S(=O)(=O)CCC)c1ccc(Br)cc1 . Result: > 10 µM

Value sought: TGI, system HOP-62 NSCLC, item Cc1ccc(-c2cc(=O)c3cc(C)c(C)c(C(=O)O)c3o2)cc1C . Result: > 100 µM

Value sought: TGI, system HOP-62 NSCLC, item COc1ccc(N2C(=O)C3ON(C(C(N)=O)c4ccccc4)C(c4cc5ccccc5c5ccccc45)C3C2=O)cc1 (centres undefined) . Result: > 50 µM

Value sought: TGI, system HOP-62 NSCLC, item C=C(CC[C@@H](C)[C@H]1CC[C@@]2(C)C3=C(CC[C@]12C)[C@@]1(C)CC[C@H](O)[C@@H](C)C1CC3)C(C)C (some centres undefined) . Result: 1.9 µM

Value sought: TGI, system HOP-62 NSCLC, item CC12CCC([C@H](C(O)C3CCCCC3)C1=O)C2(C)C (some centres undefined) . Result: > 100 µM

Value sought: TGI, system HOP-62 NSCLC, item NC(N)=N/N=C/c1c(-c2cccc([N+](=O)[O-])c2)nc2n1CCS2 . Result: > 100 µM

Value sought: TGI, system HOP-62 NSCLC, item Cc1ccc(C(=O)Nc2ccc(CN3CCN(C)CC3)c(C(F)(F)F)c2)cc1C#Cc1cnc(N)c2ccccc12 . Result: 2.13 µM

* * *

Can you tell me TGI for the items I'm about to list?
- System: KM12 colon
- test.details: NCI tumour cell line growth inhibition, 48 h
Quick reminder: number only, in µM, skip the unit.

Value sought: TGI, system KM12 colon, item COc1ccc(C2C3=C(Nc4ncnn42)c2ccccc2OC3c2ccccc2)cc1 (stereo not drawn) . Result: 76.5

Value sought: TGI, system KM12 colon, item N#Cc1c(-c2ccccc2)cc(Nc2cccc(C(F)(F)F)c2)n2c1nc1ccccc12 . Result: 30.5

Value sought: TGI, system KM12 colon, item N#Cc1cccc(NC(=O)c2cc(-c3ccc(F)cc3F)ccc2O)c1 . Result: 10.8

Value sought: TGI, system KM12 colon, item COC(=O)[C@H](Cc1c[nH]c2ccccc12)NC(=O)[C@@H](OC)[C@@H]1Cc2cc3cc(OC4CC(OC5CC(O)C(O)C(C)O5)C(O)C(C)O4)c(C)c(O)c3c(O)c2C(=O)[C@H]1OC1CC(OC2CC(OC3CC(C)(O)C(O)C(C)O3)C(O)C(C)O2)C(O)C(C)O1 (stereo partly drawn) . Result: 1.05

Value sought: TGI, system KM12 colon, item Cc1ccc(/C=C2\CCC/C(=C\c3ccc(O)c(CN4CCCCC4)c3)C2=O)cc1 . Result: 8.33

Value sought: TGI, system KM12 colon, item Cc1ccc(C(=O)Nc2ccc(CN3CCN(C)CC3)c(C(F)(F)F)c2)cc1C#Cc1cnc(N)c2ccccc12 . Result: 1.08

Value sought: TGI, system KM12 colon, item CC[CH2][Sn]([Cl])([Cl])[CH2]CC.Oc1ccccc1C=NCCN=Cc1ccccc1O . Result: 25.9

Value sought: TGI, system KM12 colon, item C/C=C(/C)C(=O)O[C@H]1C[C@@H]2[C@@H](O)c3occ(C)c3C[C@]2(C)[C@@H](C)C1 . Result: 30.2

Value sought: TGI, system KM12 colon, item COc1ccc(CNc2nc3cc(C(F)(F)F)ccc3nc2C)cc1OC . Result: 83

Reference source: PubChem BioAssay (NCI)
